# METHOD_DESCRIPTION: Stability of compounds in rat blood plasma
# Format: in vitro ADME
Numbered stars: 1 amine (or outer) side, 2 acyl side, 3 side chain; on linkers, the order of the positions; unused ones are H or OH. Square brackets hold non-standard residues; d marks the D form. Peptide text beside a SMILES is read from it. * marks the point of attachment. ξ: configuration not given here. Gly(1-amidinopiperidin-4-yl) = N=C(N)N1CCC([C@H](N)C(=O)O)CC1; X1 = CC(C)c1oc([C@H](CO)N[*:1])nc1C(=O)[*:2]; Pro(3R-Ph) = O=C(O)[C@H]1NCC[C@@H]1c1ccccc1; Tic = O=C(O)[C@@H]1Cc2ccccc2CN1; Cha = N[C@@H](CC1CCCCC1)C(=O)O; ξDisc = O=C(O)C1NCc2ccccc21; Nle = CCCC[C@H](N)C(=O)O; X2 = OCCOCCN(Cc1ccccc1)*
The following compounds are listed with their measured Stability (Arbitrary units) Rat 6 h values.
// return numeric value only (unit: Arbitrary units, not printed)

Example results:
{"columns": ["COMPOUND", "Stability (Arbitrary units) Rat 6 h"],
 "data": [
  ["CSCC[C@H](NC(=O)C1c2ccccc2CN1C(=O)[C@H](CCCNC(=N)N)NC(=O)[C@H](CC1CCCCC1)NC(C)=O)C(N)=O (stereo partly drawn) [Compound P12-1, Ac-Cha-Arg-Disc-Met-NH2] (Ac-[Cha]R[ξDisc]M-NH2)", 67],
  ["CCCC[C@H](NC(=O)[C@@H]1Cc2ccccc2CN1C(=O)[C@@H](NC(=O)[C@H](CC1CCCCC1)NC(C)=O)C1CCN(C(=N)N)CC1)C(=O)N1CC[C@H](c2ccccc2)[C@H]1C(=O)N[C@@H](CO)c1nc(C(=O)N(C)C)c(C(C)C)o1 [Compound P53] (Ac-[Cha][Gly(1-amidinopiperidin-4-yl)][Tic][Nle][Pro(3R-Ph)][X1]-NMe2)", 114]
]}

(Q) Give the measured Stability (Arbitrary units) Rat 6 h of CCCC[C@H](NC(=O)C1c2ccccc2CN1C(=O)[C@@H](NC(=O)[C@H](CC1CCCCC1)NC(C)=O)C1CCN(C(=N)N)CC1)C(=O)N(C)Cc1ccccc1 (single isomer, unassigned) [Compound P76-1, Ac-Cha-Gpg-Disc-Nle-N(Me)Bn] .
(A) 80

(Q) Record request: Stability (Arbitrary units) Rat 6 h value, item CSCC[C@H](NC(=O)C1c2ccccc2CN1C(=O)[C@@H](NC(=O)[C@H](CC1CCCCC1)NC(C)=O)C1CCN(C(=N)N)CC1)C(N)=O (stereo partly drawn) [Compound P66-1, Ac-Cha-Gpg-Disc-Met-NH2] (Ac-[Cha][Gly(1-amidinopiperidin-4-yl)][ξDisc]M-NH2)
(A) 138

(Q) Given the entry CSCC[C@H](NC(=O)[C@@H]1Cc2ccccc2CN1C(=O)[C@H](CCCNC(=N)N)NC(=O)[C@H](CC1CCCCC1)NC(C)=O)C(=O)N1CC[C@H](c2ccccc2)[C@H]1C(N)=O [Compound P31, Ac-Cha-Arg-Tic-Met-βPhPro-NH2] (Ac-[Cha]R[Tic]M[Pro(3R-Ph)]-NH2) , report its measured Stability (Arbitrary units) Rat 6 h.
(A) 42

(Q) What Stability (Arbitrary units) Rat 6 h value was documented for this compound, CCCC[C@H](NC(=O)[C@@H]1Cc2ccccc2CN1C(=O)[C@@H](NC(=O)[C@H](CC1CCCCC1)NC(C)=O)C1CCN(C(=N)N)CC1)C(=O)N(CCOCCO)Cc1ccccc1 [Compound P101, Ac-Cha-Gpg-Tic-Nle-N(Bn)CH2CH2OCH2CH2OH] (Ac-[Cha][Gly(1-amidinopiperidin-4-yl)][Tic][Nle]-X2) ?
(A) 73

(Q) For the compound CSCC[C@H](NC(=O)[C@@H]1Cc2ccccc2CN1C(=O)[C@@H](NC(=O)[C@H](CC1CCCCC1)NC(C)=O)C1CCN(C(=N)N)CC1)C(=O)N1CC[C@H](c2ccccc2)[C@H]1C(N)=O [Compound P80, Ac-Cha-Gpg-Tic-Met-βPhProNH2] (Ac-[Cha][Gly(1-amidinopiperidin-4-yl)][Tic]M[Pro(3R-Ph)]-NH2) , what Stability (Arbitrary units) Rat 6 h is on record?
(A) 102
